Form field: activity coefficient (one value per entry).
# method.description: activity coefficient (dimensionless); of the first substance listed, at infinite dilution; xn = mol fraction of the nth substance listed
# condition.label: 322.65 K; Liquid; Chromatography; x1 = 0
readout: activity coefficient

> print(dat)
                                   compound               readout  quantitative.result
1  CO [methanol] + CCn1cc[n+](C)c1.N#CN=C=[N-]  activity coefficient                 0.44
2  C1COCCO1 [1,4-dioxane] + CCn1cc[n+](C)c1.N#CN=C=[N-]  activity coefficient                 0.89
3  Cc1ccccc1 [toluene] + CCn1cc[n+](C)c1.N#CN=C=[N-]  activity coefficient                 4.22
4  CCC(C)CC [3-methylpentane] + CCn1cc[n+](C)c1.N#CN=C=[N-]  activity coefficient                 93.7
5  C=O [methanal] + CCCCCC[N+](C)(C)C.O=S(=O)([N-]S(=O)(=O)C(F)(F)F)C(F)(F)F  activity coefficient                0.228

---

Form field: activity coefficient (one value per entry).
# method.description: activity coefficient (dimensionless); of the first substance listed, at infinite dilution; xn = mol fraction of the nth substance listed
# condition.label: 343.15 K; Liquid; Chromatography; x1 = 0
readout: activity coefficient

> print(dat)
                                    compound  result
 1  CCCCCCCCCCC [undecane] + CCn1cc[n+](C)c1.N#CN=C=[N-]     834
 2  CCCCCCCCCCCCC [tridecane] + CCn1cc[n+](C)c1.N#CN=C=[N-]    1650
 3  CC#N [acetonitrile] + CCn1cc[n+](C)c1.N#CN=C=[N-]    0.79
 4  CCCC(C)=O [pentan-2-one] + CCn1cc[n+](C)c1.N#CN=C=[N-]     2.9
 5  CCCO [propan-1-ol] + CCn1cc[n+](C)c1.N#CN=C=[N-]    0.97
 6  CCC=O [propanal] + CCn1cc[n+](C)c1.N#CN=C=[N-]    1.37
 7  CCN(CC)CC [triethylamine] + CCn1cc[n+](C)c1.N#CN=C=[N-]     131
 8  C#CCCCCC [1-heptyne] + CCn1cc[n+](C)c1.N#CN=C=[N-]    14.1
 9  ClC(Cl)Cl [trichloromethane] + CCn1cc[n+](C)c1.N#CN=C=[N-]    0.86
10  C1CCCCCC1 [cycloheptane] + CCn1cc[n+](C)c1.N#CN=C=[N-]     221

---

# method.description: activity coefficient (dimensionless); of the first substance listed, at infinite dilution; xn = mol fraction of the nth substance listed
# condition.label: 332.85 K; Liquid; Chromatography; x1 = 0
readout: activity coefficient

> print(dat)
                                   compound               readout  quantitative.result
1  Cc1cccc(C)c1 [1,3-dimethylbenzene] + CCn1cc[n+](C)c1.N#CN=C=[N-]  activity coefficient                 8.39
2  CC(C)O [propan-2-ol] + CCn1cc[n+](C)c1.N#CN=C=[N-]  activity coefficient                 1.14
3  C1CCCCCC1 [cycloheptane] + CCn1cc[n+](C)c1.N#CN=C=[N-]  activity coefficient                  169
4  ClC(Cl)Cl [trichloromethane] + CCn1cc[n+](C)c1.N#CN=C=[N-]  activity coefficient                 0.81
5  CC1CCCCC1 [methylcyclohexane] + CCn1cc[n+](C)c1.N#CN=C=[N-]  activity coefficient                 67.1
6  OCC(F)(F)F [2,2,2-trifluoroethanol] + CCn1cc[n+](C)c1.N#CN=C=[N-]  activity coefficient                 0.11
7  ClCCl [dichloromethane] + CCn1cc[n+](C)c1.N#CN=C=[N-]  activity coefficient                 0.73
8  CCC=O [propanal] + CCn1cc[n+](C)c1.N#CN=C=[N-]  activity coefficient                 1.39
9  CCCO [propan-1-ol] + CCn1cc[n+](C)c1.N#CN=C=[N-]  activity coefficient                 1.01

---

# method.description: activity coefficient (dimensionless); of the first substance listed, at infinite dilution; xn = mol fraction of the nth substance listed
# condition.label: 332.85 K; Liquid; Chromatography; x1 = 0
readout: activity coefficient

> print(dat)
                                    compound  quantitative.result
 1  Cc1ccccc1 [toluene] + CCn1cc[n+](C)c1.N#CN=C=[N-]                 4.21
 2  CCCCCCCCCCCC [dodecane] + CCn1cc[n+](C)c1.N#CN=C=[N-]                 1290
 3  CCCCCCCCCCC [undecane] + CCn1cc[n+](C)c1.N#CN=C=[N-]                  926
 4  CC(C)OC(C)C [diisopropyl ether] + CCn1cc[n+](C)c1.N#CN=C=[N-]                 32.3
 5  CCCCCCCCCC [decane] + CCn1cc[n+](C)c1.N#CN=C=[N-]                  627
 6  C#CCCCCC [1-heptyne] + CCn1cc[n+](C)c1.N#CN=C=[N-]                 14.3
 7  CCc1ccccc1 [ethylbenzene] + CCn1cc[n+](C)c1.N#CN=C=[N-]                 7.38
 8  CCC(C)CC [3-methylpentane] + CCn1cc[n+](C)c1.N#CN=C=[N-]                 87.2
 9  CCOCC [diethyl ether] + CCn1cc[n+](C)c1.N#CN=C=[N-]                 9.71
10  CCCCCCCCC [nonane] + CCn1cc[n+](C)c1.N#CN=C=[N-]                  446

---

# method.description: activity coefficient (dimensionless); of the first substance listed, at infinite dilution; xn = mol fraction of the nth substance listed
# condition.label: 343.15 K; Liquid; Chromatography; x1 = 0
readout: activity coefficient

> print(dat)
                                   compound               readout  quantitative.result
1  CCC(C)CC [3-methylpentane] + CCn1cc[n+](C)c1.N#CN=C=[N-]  activity coefficient                 81.4
2  CCC(=O)CC [pentan-3-one] + CCn1cc[n+](C)c1.N#CN=C=[N-]  activity coefficient                 2.84
3  C=CCCCC [hex-1-ene] + CCn1cc[n+](C)c1.N#CN=C=[N-]  activity coefficient                 39.9
4  c1ccsc1 [thiophene] + CCn1cc[n+](C)c1.N#CN=C=[N-]  activity coefficient                 1.53
5  C=O [methanal] + CCn1cc[n+](C)c1.N#CN=C=[N-]  activity coefficient                 0.37

---

# method.description: activity coefficient (dimensionless); of the first substance listed, at infinite dilution; xn = mol fraction of the nth substance listed
# condition.label: 322.65 K; Liquid; Chromatography; x1 = 0
Form field: activity coefficient (one value per entry).
readout: activity coefficient

> print(dat)
                                   compound               readout  quantitative.result
1  CCCCCCCC [octane] + CCCCCC[N+](C)(C)C.O=S(=O)([N-]S(=O)(=O)C(F)(F)F)C(F)(F)F  activity coefficient                   19
2  CCCCCCCCC [nonane] + CCCCCC[N+](C)(C)C.O=S(=O)([N-]S(=O)(=O)C(F)(F)F)C(F)(F)F  activity coefficient                 28.9
3  ClC(Cl)(Cl)Cl [tetrachloromethane] + CCCCCC[N+](C)(C)C.O=S(=O)([N-]S(=O)(=O)C(F)(F)F)C(F)(F)F  activity coefficient                 2.42
4  CCCCCCCCCC [decane] + CCCCCC[N+](C)(C)C.O=S(=O)([N-]S(=O)(=O)C(F)(F)F)C(F)(F)F  activity coefficient                 36.8

---

Form field: activity coefficient (one value per entry).
# method.description: activity coefficient (dimensionless); of the first substance listed, at infinite dilution; xn = mol fraction of the nth substance listed
# condition.label: 343.85 K; Liquid; Chromatography; x1 = 0
readout: activity coefficient

> print(dat)
                                   compound  quantitative.result
1  C1CCOC1 [tetrahydrofuran] + CCCCCC[N+](C)(C)C.O=S(=O)([N-]S(=O)(=O)C(F)(F)F)C(F)(F)F                0.754
2  C1CCCCC1 [cyclohexane] + CCCCCC[N+](C)(C)C.O=S(=O)([N-]S(=O)(=O)C(F)(F)F)C(F)(F)F                  5.9
3  CC1CCCC1 [methylcyclopentane] + CCCCCC[N+](C)(C)C.O=S(=O)([N-]S(=O)(=O)C(F)(F)F)C(F)(F)F                 5.96
4  CCc1ccccc1 [ethylbenzene] + CCCCCC[N+](C)(C)C.O=S(=O)([N-]S(=O)(=O)C(F)(F)F)C(F)(F)F                 1.91
